Measured median fluorescence intensity, fold over isotype control of individual entries
molecular target: SARS-CoV-2 full length spike protein, V483A mutant, expressed on the surface of CHO cells (SARS-CoV-2, UniProt P0DTC2 14-1273)
Please respond with the number in fold over isotype and leave the unit unwritten.

Recorded median fluorescence intensity, fold over isotype control, per entry:
antibody 366 (antibody, V domains shown) VH: QVQLVESGGGVVQPGRSLRLSCAASGFTFSSYAMHWVRQAPGKGLEWVAVISYDGSNKYYADSVKGRFTISRDNSKNTLYLQMNSLRAEDTAVYYCARGLVGYNWFDPWGQGTLVTVSS VL: DIQMTQSPSSVSASVGDRVTITCRASQGISSWLAWYQQKPGKAPKLLIYAASSLQSGVPSRFSGSGSGTDFTLTISSLQPEDFATYYCQQANSFTFGPGTKVDIK : 9.74
antibody 365 (antibody, V domains shown) VH: QVQLVESGGGVVQPGRSLRLSCAASGFNLSSYAMHWVRQASGKGLEWVSLISYDGSIKYYTDSVKGRFTVSGDNSKNTLFLQMNSLRPDDSALYYCVRGGVSGPNSFDMWGQGTTVTVSS VL: DVVMTQSPLSLPVTLGQPASISCRSSQSLVYSDGNTYVNWFQQRPGQSPRRLIYKVSIRASGVPDRFSGSGSGTDFALKISRVEAEDVGVYYCMQGTHWPVTFGQGTKVEIK : 11.2

Now let's try a different one.
## Task What does the record list as median fluorescence intensity, fold over isotype control for antibody 323 (antibody, V domains shown) VH: QVQLVQSGAEVKKPGASVKVSCKVSGYTLTELSMHWVRQAPGKGLEWMGGFDPEDGETIYAQKFQGRVTMTEDTSTDTAYMELSSLRSEDTAVYYCATSTIFAPGGWFDPWGQGTLVTVSS VL: QSALTQPASVSGSPGQSITISCTGTSSDVGSYNLVSWYQQHPGKAPKLMIYEVSKRPSGVSNRFSGSKSGNTASLTISGLQAEDEADYYCCSYAGSTHYVFGTGTKVTVL ?
## Result 19
